Hello, the source for this data is paper PMC12430364, in case you need it.

Target: β1,4-N-acetylgalactosaminyltransferase 1 (B4GALNT1, GM2 synthase) (Homo sapiens)
Construct: soluble His8-tagged, amino acids 1–25 deleted
Sequence (Q00973 26-533): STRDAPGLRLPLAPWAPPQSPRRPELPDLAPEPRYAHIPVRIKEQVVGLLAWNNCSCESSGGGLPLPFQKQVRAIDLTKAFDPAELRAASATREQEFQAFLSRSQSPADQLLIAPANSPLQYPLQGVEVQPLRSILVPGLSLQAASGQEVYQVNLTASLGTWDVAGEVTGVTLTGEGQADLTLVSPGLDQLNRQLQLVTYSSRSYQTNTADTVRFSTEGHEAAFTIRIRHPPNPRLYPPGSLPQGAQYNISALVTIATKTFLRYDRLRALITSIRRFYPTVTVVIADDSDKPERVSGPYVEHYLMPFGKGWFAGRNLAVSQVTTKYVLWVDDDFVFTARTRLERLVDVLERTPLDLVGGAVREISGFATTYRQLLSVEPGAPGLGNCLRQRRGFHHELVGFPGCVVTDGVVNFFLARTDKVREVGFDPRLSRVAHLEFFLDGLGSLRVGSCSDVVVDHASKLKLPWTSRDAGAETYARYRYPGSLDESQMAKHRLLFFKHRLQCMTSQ
Assay: radiolabeled UDP-[3H]GalNAc transfer to GM3, purified enzyme; […] inhibition at […] and IC50
OUTCOME MEASURE: IC50 (µM)

[
  {
    "COMPOUND": "CCCCCCCCCCC[n+]1ccn(CCCCCCn2cc[n+](CCCCCCCCCCC)c2)c1 [QT163]",
    "ASSAY RESULT": 200
  }
]
